tested-system: E. coli SPase (Escherichia coli, UniProt P00803)
Construct: Full length His-tagged E. coli SPase proteins; His; made in house; host or cells: E. coli BL21(DE3)
Sequence (P00803 whole entry): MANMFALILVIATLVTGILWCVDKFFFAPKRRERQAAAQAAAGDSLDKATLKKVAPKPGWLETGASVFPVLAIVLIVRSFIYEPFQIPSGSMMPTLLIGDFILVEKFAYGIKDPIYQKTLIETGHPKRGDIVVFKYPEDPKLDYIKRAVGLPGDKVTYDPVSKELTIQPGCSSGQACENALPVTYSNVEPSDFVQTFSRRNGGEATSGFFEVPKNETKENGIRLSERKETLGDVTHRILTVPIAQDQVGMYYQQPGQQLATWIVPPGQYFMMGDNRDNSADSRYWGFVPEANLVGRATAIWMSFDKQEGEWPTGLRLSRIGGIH
experiment-summary: Biochemical SPase activity assay, fluorogenic peptide substrate, E. coli enzyme
condition-parameters: 20 μM substrate, 10 minutes preincubation, read-out: IC 50 (nM) E. coli
*1 amine or outer side, *2 acyl side, *3 side chain or, on linkers, in order; H or OH if unused. Where a SMILES comes first, the peptide text is derived from it. [ ]: non-standard residue; d: D form. The star is where a group is joined. ξ: configuration not given here. boroAla((+)-pinanediol) = C[C@H](N*)B1O[C@@H]2C[C@@H]3C[C@@H](C3(C)C)[C@]2(C)O1; Benzoyl(4-(4-Cl-Ph)) = O=C(c1ccc(-c2ccc(Cl)cc2)cc1)*; ξ3Amino2oxobutanoyl = CC(N[*:1])C(=O)C(=O)[*:2]; X1 = C[C@H](N[*:1])C(=O)C(=O)[*:2]; Thr(3ξ) = CC(O)[C@H](N)C(=O)O; X9 = CC1(c2ccccc2)CCN(*)CC1; Decanoyl = CCCCCCCCCC(=O)*; Dap = NC[C@H](N)C(=O)O; CO = O=C([*:1])[*:2]; NHtBu = CC(C)(C)N*; βAla = NCCC(=O)O
Measured IC50 by item
attribute-measured: IC50 (nM)

# compound, attribute-measured, measured-number
rows = [
    ("C[C@H](NC(=O)[C@H](CCCCN)NC(=O)[C@H](C)NC(=O)[C@@H](NC(=O)[C@H](CCCCN)NC(=O)N1CCC(C)(c2ccccc2)CC1)[C@@H](C)O)B1O[C@@H]2C[C@@H]3C[C@@H](C3(C)C)[C@]2(C)O1 [Compound 130] ({X9-CO}-KTAK-{boroAla((+)-pinanediol)})", "IC50", 270),
    ("CCCCCCCCCC(=O)N[C@@H](CCCCN)C(=O)N[C@H](C(=O)N[C@@H](C)C(=O)N[C@@H](CC(N)=O)C(=O)NC(C)C(=O)C(=O)NC)C(C)O (stereo partly shown) [Compound 107] (Decanoyl-K[Thr(3ξ)]AN[ξ3Amino2oxobutanoyl]-NHMe)", "IC50", 3200),
    ("CCCCCCCCCC(=O)NCCC(=O)N[C@@H](CCCCN)C(=O)N[C@H](C(=O)N[C@@H](C)C(=O)N[C@@H](CC(N)=O)C(=O)NC(C)C(=O)C(=O)NC)C(C)O (stereo partly shown) [Compound 106] ({Decanoyl-βAla}-K[Thr(3ξ)]AN[ξ3Amino2oxobutanoyl]-NHMe)", "IC50", 6200),
    ("C[C@H](NC(=O)[C@@H](NC(=O)[C@H](CN)NC(=O)c1ccc(-c2ccc(Cl)cc2)cc1)[C@@H](C)O)C(=O)N[C@@H](CCCCN)C(=O)N[C@@H](C)C(=O)C(=O)NC(C)(C)C [Compound 108] ({Benzoyl(4-(4-Cl-Ph))}-[Dap]TAK[X1]-NHtBu)", "IC50", 930),
]
